# targetOrTestSystem: T1, Human CD3εδ Fc heterodimer (Hu CD3ε Fc + CD3δ Fc-HIS) (human, UniProt P07766 22-126; P04234 22-100)
# T1 construct: range 22-126;range 22-100; Made in HEK 293 cells with a heterologous signal peptide; also called Hu CD3εδ-Fc; CD3εδ Fc-HIS heterodimer; not shown: Fc; Fc followed by HIS tag
# T1 sequence (P07766 22-126, stated change not applied, form in doubt, chain 1 of 2): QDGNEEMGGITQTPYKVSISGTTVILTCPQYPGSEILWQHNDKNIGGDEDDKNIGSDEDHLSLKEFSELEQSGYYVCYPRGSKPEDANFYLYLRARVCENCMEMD
# T1 sequence (P04234 22-100, stated change not applied, form in doubt, chain 2 of 2): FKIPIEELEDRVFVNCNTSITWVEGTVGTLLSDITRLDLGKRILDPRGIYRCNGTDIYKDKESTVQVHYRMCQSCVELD
# experimentalDetails: BLI (Octet), CD3εδ Fc on AHC sensor, 100 nM Fab
recordedMetric: pKd
pKd field: float, defined as -log10 of concentration (mol/L).

binder: Antibody No. V008 (ADI-70325) Fab (Fab, V domains shown, Fab by papain digestion of the IgG1) VH: QVQLVQSGAEVKKPGASVKVSCKASGFNIKDYYMHWVRQAPGQRLEWIGWIDLENAETVYDAKFQDRVTITRDTSASTAYMELSSLRSEDTAVYYCARDAYGRYFYDVWGQGTLVTVSS VL: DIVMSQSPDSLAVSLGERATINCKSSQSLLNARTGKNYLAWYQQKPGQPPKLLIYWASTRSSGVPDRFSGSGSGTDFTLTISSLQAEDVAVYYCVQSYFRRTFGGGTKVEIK
pKd: 9.02
--
binder: Antibody No. V009 (ADI-70326) Fab (Fab, V domains shown, Fab by papain digestion of the IgG1) VH: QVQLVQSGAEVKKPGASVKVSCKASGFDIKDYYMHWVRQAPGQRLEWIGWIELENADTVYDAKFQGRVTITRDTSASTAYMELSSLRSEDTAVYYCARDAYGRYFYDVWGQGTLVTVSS VL: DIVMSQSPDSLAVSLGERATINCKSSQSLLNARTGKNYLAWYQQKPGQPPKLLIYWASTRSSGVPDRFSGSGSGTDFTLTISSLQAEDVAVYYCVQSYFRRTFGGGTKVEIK
pKd: 9.09
--
binder: Antibody No. V005 (ADI-67448) Fab (Fab, V domains shown, Fab by papain digestion of the IgG1; VH as printed is identical to that of V004) VH: QVQLVQSGAEVKKPGASVKVSCKASGFNIDDYYMHWVRQAPGQRLEWMGWIDLENDNTIYDAKFQGRVTITRDTSASTAYMELSSLRSEDTAVYYCARDAYGRYFYDVWGQGTLVTVSS VL: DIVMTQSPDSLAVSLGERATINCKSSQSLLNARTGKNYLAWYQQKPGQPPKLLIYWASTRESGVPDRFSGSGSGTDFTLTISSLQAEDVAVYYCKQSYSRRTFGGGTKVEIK
pKd: 8.16
--
binder: Antibody No. V002 (ADI-67445) Fab (Fab, V domains shown, Fab by papain digestion of the IgG1) VH: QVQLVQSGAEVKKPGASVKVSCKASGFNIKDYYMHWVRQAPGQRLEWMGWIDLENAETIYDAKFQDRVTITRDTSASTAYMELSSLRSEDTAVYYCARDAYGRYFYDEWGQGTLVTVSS VL: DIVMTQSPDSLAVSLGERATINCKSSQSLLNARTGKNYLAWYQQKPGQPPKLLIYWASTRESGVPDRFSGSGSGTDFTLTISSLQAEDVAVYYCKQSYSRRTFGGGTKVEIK
pKd: 8.11

Please turn your attention to the following entry.
Problem: Which pKd is listed for Antibody No. V007 (ADI-67450) Fab (Fab, V domains shown, Fab by papain digestion of the IgG1) VH: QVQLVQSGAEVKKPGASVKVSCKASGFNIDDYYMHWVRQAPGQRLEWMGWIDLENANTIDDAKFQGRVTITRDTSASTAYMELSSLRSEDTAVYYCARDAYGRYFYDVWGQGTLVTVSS VL: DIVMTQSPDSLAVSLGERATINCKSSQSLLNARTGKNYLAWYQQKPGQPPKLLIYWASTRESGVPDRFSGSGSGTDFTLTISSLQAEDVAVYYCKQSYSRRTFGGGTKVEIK ?
Result: 8.27

Values compiled from patent US20240317858A1.
